Molecular target: CGRP1 receptor (CRLR/RAMP1 complex) of human neuroblastoma SK-N-MC cells (human, UniProt Q16602 23-461; O60894 27-148)
Sequence (Q16602 23-461, chain 1 of 2): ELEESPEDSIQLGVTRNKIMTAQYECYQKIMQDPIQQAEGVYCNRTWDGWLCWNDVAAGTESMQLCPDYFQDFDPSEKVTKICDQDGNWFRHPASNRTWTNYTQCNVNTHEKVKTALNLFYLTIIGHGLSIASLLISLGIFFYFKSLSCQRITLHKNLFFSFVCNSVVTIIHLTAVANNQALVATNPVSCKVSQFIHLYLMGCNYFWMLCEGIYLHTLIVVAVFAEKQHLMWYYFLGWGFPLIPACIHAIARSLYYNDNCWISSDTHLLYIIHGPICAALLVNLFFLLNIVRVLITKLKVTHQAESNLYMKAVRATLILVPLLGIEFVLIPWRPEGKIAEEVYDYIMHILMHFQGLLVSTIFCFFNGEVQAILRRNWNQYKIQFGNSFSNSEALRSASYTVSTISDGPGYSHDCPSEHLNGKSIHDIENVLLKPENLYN
Sequence (O60894 27-148, chain 2 of 2): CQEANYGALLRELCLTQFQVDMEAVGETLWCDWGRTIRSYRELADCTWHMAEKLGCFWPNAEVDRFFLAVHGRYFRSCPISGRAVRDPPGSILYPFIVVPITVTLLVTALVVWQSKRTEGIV
Assay: cell-based or functional assay
Square brackets hold non-standard residues; d marks the D form. Tic = O=C(O)[C@@H]1Cc2ccccc2CN1; Cit = NC(=O)NCCC[C@H](N)C(=O)O
metric: Peptide IC50 (nM)
Give bare numbers, in nM.

Below are 7 binders. Give each one its Peptide IC50.
1. WVTHXLAGLLSRSGGVVRKNFVPTDVGPFAF (Ac-WVTH[Cit]LAGLLSRSGGVVRKNFVPTDVGPFAF-NH2) [SEQ ID NO 861]
2. WVTHXLAGLLSXSGGVVXKNXVXTDVGPXAF (Ac-WVTH[Cit]LAGLLS[Cit]SGGVV[hArg]KN[pI-Phe]V[Oic]TDVGP[pI-Phe]AF-NH2) [SEQ ID NO 952]
3. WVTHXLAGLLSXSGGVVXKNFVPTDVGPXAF (Ac-WVTH[Cit]LAGLLS[Cit]SGGVV[hArg]KNFVPTDVGP[1-Nal]AF-NH2) [SEQ ID NO 927]
4. Ac-WVTH[Cit]LAGLLS[Cit]SGGVVRKNFVPTDVG[Tic]FAF-NH2 [SEQ ID NO 957]
5. WVTHRXAGLLSRXGGVVRKNFVPTDVGPFAF (Ac-WVTHR[NMeLeu]AGLLSR[NMeSer]GGVVRKNFVPTDVGPFAF-NH2) [SEQ ID NO 874]
6. Ac-WVTHRLAGLLSRPGGVVRKNFVPTDVGPFAF-NH2 [SEQ ID NO 860]
7. WVTHXLAGLLSXSGGVVRKNFVXTDVGPFAF (Ac-WVTH[Cit]LAGLLS[Cit]SGGVVRKNFV[Hyp]TDVGPFAF-NH2) [SEQ ID NO 877]

Response:
[0.57, 2.34, 1.28, 4.32, 2.92, 1.42, 1.81]
